tested on: peripheral blood mononuclear cell (PBMC); experiment: Peripheral blood mononuclear cell assay; details: read-out: PBMC EC50 IFN-α; compounds 1h, washed, 15 hour incubation; interferon-alpha level in medium; average of one to four donors
So I've got a bunch of compounds here, and I need their pEC50 values.
Give bare numbers, as −log10 of the molar value.

1. CCCCCCCCCC(=O)Oc1ccc(CSP2(=O)OC[C@H]3O[C@@H](n4cnc5c(N)ncnc54)[C@H](F)[C@@H]3OCP(=O)(O)OC[C@H]3O[C@@H](n4cnc5c(=O)[nH]c(N)nc54)[C@H](O2)[C@@H]3F)cc1 (single isomer, unassigned) [Compound 35a]: 5.59

Field: pEC50. Fill in for each record below.
1. Nc1nc2c(ncn2[C@@H]2O[C@@H]3COP(=O)(O)O[C@H]4[C@@H](O)[C@H](n5cnc6c(N)ncnc65)O[C@@H]4COP(=O)(O)O[C@@H]2[C@@H]3O)c(=O)[nH]1 [2′3′-cGAMP, c[G(2′,5′)pA(3′,5′)p], reference compound]
2. CCCCCCCCCCCC(=O)Oc1ccc(CSP2(=O)OC[C@H]3O[C@@H](n4cnc5c(N)ncnc54)[C@H](F)[C@@H]3OCP(=O)(O)OC[C@H]3O[C@@H](n4cnc5c(=O)[nH]c(N)nc54)[C@H](O2)[C@@H]3F)cc1 (single isomer, unassigned) [Compound 38a]
3. CCCCCCCCCCCC(=O)OCSP1(=O)OC[C@H]2O[C@@H](n3cnc4c(N)ncnc43)[C@H](F)[C@@H]2OCP(=O)(O)OC[C@H]2O[C@@H](n3cnc4c(=O)[nH]cnc43)[C@H](O1)[C@@H]2F (single isomer, unassigned) [Compound 56b]
4. CCCCCCCCCCCC(=O)OCOP1(=O)CO[C@H]2[C@@H](F)[C@H](n3cnc4c(N)ncnc43)O[C@@H]2COP(=O)(OCOC(=O)CCCCCCCCCCC)O[C@@H]2[C@H](F)[C@@H](CO1)O[C@H]2n1cnc2c(=O)[nH]cnc21 (single isomer, unassigned) [Compound 79b]
5. CC(C)(C)C(=O)OCOc1ccc(CSP2(=O)OC[C@H]3O[C@@H](n4cnc5c(N)ncnc54)[C@H](F)[C@@H]3OCP(=O)(O)OC[C@H]3O[C@@H](n4cnc5c(=O)[nH]c(N)nc54)[C@H](O2)[C@@H]3F)cc1 (single isomer, unassigned) [Compound 39b]
6. Nc1nc2c(ncn2[C@@H]2O[C@@H]3COP(=O)(O)CO[C@H]4[C@@H](F)[C@H](n5cnc6c(N)ncnc65)O[C@@H]4COP(=O)(S)O[C@@H]2[C@@H]3F)c(=O)[nH]1 (single isomer, unassigned) [Compound 11b]
7. CCCCCCCCCCCCCCCCOC(=O)OCSP1(=O)OC[C@H]2O[C@@H](n3cnc4c(N)ncnc43)[C@H](F)[C@@H]2OCP(=O)(O)OC[C@H]2O[C@@H](n3cnc4c(=O)[nH]cnc43)[C@H](O1)[C@@H]2F (some centres unmarked) [Compound 73b]

[A]
1. 3.52
2. 5.85
3. 5.52
4. 6.70
5. 6.05
6. 3.64
7. 5.52
